- Tested Target: KAT8 Full length enzyme (Homo sapiens (Human))
- Sequence (Q9H7Z6 whole entry): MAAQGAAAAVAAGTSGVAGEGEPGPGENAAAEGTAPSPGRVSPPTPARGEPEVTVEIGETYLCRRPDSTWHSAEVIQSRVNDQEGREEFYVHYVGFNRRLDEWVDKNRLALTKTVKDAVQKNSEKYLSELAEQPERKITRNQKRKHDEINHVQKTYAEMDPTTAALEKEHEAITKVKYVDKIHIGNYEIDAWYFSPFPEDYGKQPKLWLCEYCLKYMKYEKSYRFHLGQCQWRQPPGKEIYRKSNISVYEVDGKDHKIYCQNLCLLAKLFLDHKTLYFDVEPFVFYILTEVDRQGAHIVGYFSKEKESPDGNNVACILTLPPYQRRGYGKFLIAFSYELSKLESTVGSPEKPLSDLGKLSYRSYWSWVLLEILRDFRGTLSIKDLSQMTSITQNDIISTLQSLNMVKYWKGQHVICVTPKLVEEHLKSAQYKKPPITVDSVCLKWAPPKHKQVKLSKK
- Method Description: KAT8 assay (SAMDI-MS acetylation of H3 1-21 peptide)
- Assay type: biochemical
- Assay Setup: Morrison equation fit; replicate number in parentheses; read-out: KAT8 Ki (nM) (replicate number)
Classes based on Ki: low: < 1000 nM; intermediate: ≥ 1000 nM and < 3000 nM; high: ≥ 3000 nM

| Compound | Assigned Label |
| --- | --- |
| COc1cc2c(NS(=O)(=O)c3c(OC)cc(-c4ccn(C)n4)cc3OC)noc2cc1Nc1cc(C2CC2)n[nH]1 [Example 122] | low |
| CCc1cc(Nc2cc3onc(NS(=O)(=O)c4c(OC)cc(-c5cnc(C)cn5)cc4OC)c3cc2OC)[nH]n1 [Example 232] | intermediate |
| CCc1cc(Nc2cc3onc(NS(=O)(=O)c4c(OC)cc(-c5ncc(C)cn5)cc4OC)c3cc2OC)[nH]n1 [Example 234] | intermediate |
| COc1cc2c(NS(=O)(=O)c3c(OC)cc(-c4cnn(C)n4)cc3OC)noc2cc1Nc1cc(C2CC2)n[nH]1 [Example 212] | intermediate |
| COc1cc2c(NS(=O)(=O)c3c(OC)cccc3OC)noc2cc1Nc1cc(C2(C)CC2)n[nH]1 [Example 94] | high |

Q: For the record COc1cc2c(NS(=O)(=O)c3c(OC)cc(-c4nccc(C)n4)cc3OC)noc2cc1Nc1cc(C2CC2)n[nH]1 [Example 214] , report the class its Ki corresponds to.
Ans: intermediate

Q: For the record COc1cc2c(NS(=O)(=O)c3c(OC)cccc3OCC(F)F)noc2cc1Nc1cc[nH]n1 [Example 31] , report the class its Ki corresponds to.
Ans: low

* * *

- Tested Target: UniProt Q9H7Z6
- Method Description: KAT8 assay (SAMDI-MS acetylation of H3 1-21 peptide)
- Type: biochemical
- Assay Setup: Morrison equation fit; replicate number in parentheses; read-out: KAT8 Ki (nM) (replicate number)
Observation Type: Ki (nM)
I only need the number, in nM, no unit after it.

Please review the entries below; each comes with its answer.
| Compound | Endpoint Unit | Ki |
| --- | --- | --- |
| COc1cc2c(NS(=O)(=O)c3c(OC)cccc3OC)noc2cc1Nc1cc([C@H]2CC2(F)F)[nH]n1 (single isomer, unassigned) [Example 68] | nM | 4130 |
| CCc1cc(Nc2cc3onc(NS(=O)(=O)c4c(OC)cc(-c5nccc(C)n5)cc4OC)c3cc2OC)[nH]n1 [Example 233] | nM | 2000 |
| COc1cc2c(NS(=O)(=O)c3c(OC)cccc3OC)noc2cc1Nc1n[nH]c(C)n1 [Example 36] | nM | 2990 |

Observed Ki, UniProt Q9H7Z6, CCOc1cccc(OC)c1S(=O)(=O)Nc1noc2cc(Nc3cc(C)[nH]n3)c(OC)cc12 [Example 99] : 4840

Observed Ki, UniProt Q9H7Z6, COc1cc2c(NS(=O)(=O)c3c(OC)cc([C@H]4CCCO4)cc3OC)noc2cc1Nc1cc(C2CC2)n[nH]1 [Example 141] : 762

* * *

- Tested Target: KAT7+JADE1+EAF6+ING5 4 protein complex (Homo sapiens (Human))
- Method Description: KAT7 JADE1 assay (SAMDI-MS acetylation of H3 1-21 peptide)
- Type: biochemical
- Assay Setup: Morrison equation fit; replicate number in parentheses; read-out: KAT7 JADE1 Ki (nM) (replicate number)
Each item that follows carries a reported Ki.
I only need the number, in nM, no unit after it.

Please review the entries below; each comes with its answer.
| Molecule | Tested Target | Endpoint Unit | Ki |
| --- | --- | --- | --- |
| COc1cc2c(NS(=O)(=O)c3c(OC)cc(-c4nccc(N(C)C)n4)cc3OC)noc2cc1Nc1cc(C2CC2)n[nH]1 | KAT7+JADE1+EAF6+ING5 4 protein complex (Homo sapiens (Human)) | nM | 1.6 |
| COc1cc2c(NS(=O)(=O)c3c(OC)cc(C4COC(C)(C)CO4)cc3OC)noc2cc1Nc1cc(C2CC2)n[nH]1 (single isomer, unassigned) [Example 185] | KAT7+JADE1+EAF6+ING5 4 protein complex (Homo sapiens (Human)) | nM | 1.8 |
| CCOc1cc(C)c(F)cc1S(=O)(=O)Nc1noc2cc(Nc3n[nH]cc3F)c(OC)cc12 | KAT7+JADE1+EAF6+ING5 4 protein complex (Homo sapiens (Human)) | nM | 128 |
| CCCc1ccc(S(=O)(=O)Nc2noc3cc(Nc4cc(CC)[nH]n4)c(OC)cc23)cc1 | KAT7+JADE1+EAF6+ING5 4 protein complex (Homo sapiens (Human)) | nM | 175 |
| CCc1cc(Nc2cc3onc(NS(=O)(=O)c4c(OC)cc(-c5cnc(C)cn5)cc4OC)c3cc2OC)[nH]n1 | KAT7+JADE1+EAF6+ING5 4 protein complex (Homo sapiens (Human)) | nM | 6.4 |

Observed Ki, KAT7+JADE1+EAF6+ING5 4 protein complex (Homo sapiens (Human)), "COc1cc2c(NS(=O)(=O)c3c(OC)cccc3OC)noc2cc1Nc1nc(C)cc(C)n1" : 3420

Observed Ki, KAT7+JADE1+EAF6+ING5 4 protein complex (Homo sapiens (Human)), "COc1cc2c(NS(=O)(=O)c3c(OC)cccc3OC)noc2cc1Nc1cc(C2CCCC2)n[nH]1" : 33.4

* * *

- Tested Target: KAT6A Full length enzyme (Homo sapiens (Human))
- Sequence (Q92794 other isoform, or with tags, fused parts or gaps): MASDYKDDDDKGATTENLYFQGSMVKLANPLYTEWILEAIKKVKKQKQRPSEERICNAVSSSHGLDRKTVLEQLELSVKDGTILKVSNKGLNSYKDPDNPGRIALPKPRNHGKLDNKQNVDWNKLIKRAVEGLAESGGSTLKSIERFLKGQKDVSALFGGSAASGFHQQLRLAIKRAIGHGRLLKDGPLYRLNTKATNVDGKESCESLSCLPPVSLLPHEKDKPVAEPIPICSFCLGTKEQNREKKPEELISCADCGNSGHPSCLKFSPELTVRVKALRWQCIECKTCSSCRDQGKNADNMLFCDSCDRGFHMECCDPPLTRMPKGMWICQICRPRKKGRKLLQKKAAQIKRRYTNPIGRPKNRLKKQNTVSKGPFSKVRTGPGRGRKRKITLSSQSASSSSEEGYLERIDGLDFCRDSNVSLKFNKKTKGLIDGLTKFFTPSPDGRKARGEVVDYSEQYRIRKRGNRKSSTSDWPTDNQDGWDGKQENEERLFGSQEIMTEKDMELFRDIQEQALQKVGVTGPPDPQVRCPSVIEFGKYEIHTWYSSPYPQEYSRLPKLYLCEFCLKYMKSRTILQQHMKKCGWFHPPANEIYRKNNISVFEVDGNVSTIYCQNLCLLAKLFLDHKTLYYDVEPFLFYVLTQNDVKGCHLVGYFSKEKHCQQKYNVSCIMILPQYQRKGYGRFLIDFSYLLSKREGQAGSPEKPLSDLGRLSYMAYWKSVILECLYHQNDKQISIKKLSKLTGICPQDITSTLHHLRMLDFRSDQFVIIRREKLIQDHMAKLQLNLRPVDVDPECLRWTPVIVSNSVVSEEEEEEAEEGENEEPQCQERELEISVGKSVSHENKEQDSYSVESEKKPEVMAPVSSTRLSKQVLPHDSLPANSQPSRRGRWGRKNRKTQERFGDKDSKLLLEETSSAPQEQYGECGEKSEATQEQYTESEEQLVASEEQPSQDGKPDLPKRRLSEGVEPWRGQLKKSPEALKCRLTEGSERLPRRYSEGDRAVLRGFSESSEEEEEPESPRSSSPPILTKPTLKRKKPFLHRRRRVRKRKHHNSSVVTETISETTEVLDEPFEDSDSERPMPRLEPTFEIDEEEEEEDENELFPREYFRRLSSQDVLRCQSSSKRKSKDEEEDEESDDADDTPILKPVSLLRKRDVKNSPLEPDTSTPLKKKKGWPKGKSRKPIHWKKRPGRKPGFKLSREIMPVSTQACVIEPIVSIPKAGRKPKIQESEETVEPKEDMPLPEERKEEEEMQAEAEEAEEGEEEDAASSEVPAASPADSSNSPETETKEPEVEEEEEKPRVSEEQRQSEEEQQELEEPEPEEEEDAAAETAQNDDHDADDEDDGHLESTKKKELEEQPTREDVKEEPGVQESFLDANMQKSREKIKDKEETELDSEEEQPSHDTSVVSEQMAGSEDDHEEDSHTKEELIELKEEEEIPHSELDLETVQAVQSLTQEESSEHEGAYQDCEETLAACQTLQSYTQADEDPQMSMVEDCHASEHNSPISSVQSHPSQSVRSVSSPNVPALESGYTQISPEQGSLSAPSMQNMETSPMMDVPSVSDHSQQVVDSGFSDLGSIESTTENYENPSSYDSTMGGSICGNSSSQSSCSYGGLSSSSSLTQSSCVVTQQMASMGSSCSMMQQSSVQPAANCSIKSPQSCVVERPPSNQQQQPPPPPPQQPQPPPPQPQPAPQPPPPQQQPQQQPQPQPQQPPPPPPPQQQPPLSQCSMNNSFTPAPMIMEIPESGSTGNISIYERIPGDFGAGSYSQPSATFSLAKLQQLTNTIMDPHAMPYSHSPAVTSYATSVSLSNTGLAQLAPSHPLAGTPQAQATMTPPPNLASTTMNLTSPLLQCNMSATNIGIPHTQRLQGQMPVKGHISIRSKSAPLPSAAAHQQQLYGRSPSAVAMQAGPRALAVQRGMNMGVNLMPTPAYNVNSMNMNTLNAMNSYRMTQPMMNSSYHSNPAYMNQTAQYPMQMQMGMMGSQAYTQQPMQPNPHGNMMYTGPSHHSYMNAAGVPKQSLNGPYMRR
- Method Description: KAT6A assay (SAMDI-MS acetylation of H3 1-21 peptide)
- Assay type: biochemical
- Assay Setup: Morrison equation fit; replicate number in parentheses; read-out: KAT6A Ki (nM) (replicate number)
Criterion: Ki strictly less than 5 nM. Met: Fulfilled. Not met: Not fulfilled.

Known results for compounds:
| Compound | Assigned Label |
| --- | --- |
| COc1cc2c(NS(=O)(=O)c3c(OC)cc(-c4cccn(C)c4=O)cc3OC)noc2cc1Nc1cc(C2CC2)n[nH]1 [Example 221] | Fulfilled |
| CCc1cc(Nc2cc3onc(NS(=O)(=O)c4cc(Cl)ccc4Cl)c3cc2OC)n[nH]1 [Example 134] | Not fulfilled |
| COc1cccc(OC)c1S(=O)(=O)Nc1noc2cc(N[C@@H]3CCOC3)cc(OC)c12 [Example 13] | Not fulfilled |
| COc1cc2c(NS(=O)(=O)c3c(OC)cccc3OC)noc2cc1Nc1cc2n(n1)CC[C@H]2C (single isomer, unassigned) [Example 90] | Fulfilled |
| COc1cc2c(NS(=O)(=O)c3c(OC)cc(-c4ccncc4)cc3OC)noc2cc1Nc1cc(C2CC2)n[nH]1 [Example 120] | Fulfilled |
| COc1cc2c(NS(=O)(=O)c3c(OC)cccc3OC)noc2cc1Nc1cc(C2CC2)n(C)n1 [Example 103] | Fulfilled |

Q: For COc1cc2c(NS(=O)(=O)c3c(OC)cc(C4CC(F)CCN4C)cc3OC)noc2cc1Nc1cc(C2CC2)[nH]n1 (centres unmarked) [Example 192] , is the recorded Ki below the cut-off of 5 nM?
Ans: Fulfilled

Q: For CCc1nc(Nc2cc3onc(NS(=O)(=O)c4c(OC)cccc4OC)c3cc2OC)n[nH]1 [Example 40] , is the recorded Ki below the cut-off of 5 nM?
Ans: Fulfilled

Q: For COc1cc2c(NS(=O)(=O)c3c(OC)cc(CN4CCC(C(F)(F)F)C4)cc3OC)noc2cc1Nc1cc(C2CC2)n[nH]1 (centres unmarked) [Example 205] , is the recorded Ki below the cut-off of 5 nM?
Ans: Fulfilled

Q: For COc1cc2c(NS(=O)(=O)c3ccccc3)noc2cc1Nc1ccn(C)n1 [Example 21] , is the recorded Ki below the cut-off of 5 nM?
Ans: Not fulfilled

Q: For CCn1nc(Nc2cc3onc(NS(=O)(=O)c4c(OC)cccc4OC)c3cc2OC)cc1C1CC1 [Example 113] , is the recorded Ki below the cut-off of 5 nM?
Ans: Not fulfilled

Q: For COc1cc2c(NS(=O)(=O)c3c(OC)cccc3OC)noc2cc1Nc1cc(C2(C)CC2)n[nH]1 [Example 94] , is the recorded Ki below the cut-off of 5 nM?
Ans: Not fulfilled

Q: For COc1cc2c(NS(=O)(=O)c3c(OC)cc(CN4CC[C@@H](C(F)F)C4)cc3OC)noc2cc1Nc1cc(C2CC2)n[nH]1 [Example 204] , is the recorded Ki below the cut-off of 5 nM?
Ans: Fulfilled

Q: For COc1cc2c(NS(=O)(=O)c3c(OC)cc(C4CCN([C@H]5CCOC5)C4)cc3OC)noc2cc1Nc1cc(C2CC2)n[nH]1 (single isomer, unassigned) [Example 163] , is the recorded Ki below the cut-off of 5 nM?
Ans: Fulfilled

Q: For COc1cc2c(NS(=O)(=O)c3c(OC)cccc3OC)noc2cc1Nc1cc[nH]n1 [Example 03] , is the recorded Ki below the cut-off of 5 nM?
Ans: Fulfilled

Q: For CCn1cc(Nc2cc3onc(NS(=O)(=O)c4c(OC)cccc4OC)c3cc2OC)nn1 [Example 42] , is the recorded Ki below the cut-off of 5 nM?
Ans: Not fulfilled

Q: For COc1cccc(OC)c1S(=O)(=O)Nc1noc2cc(Nc3cccnn3)cc(OC)c12 [Example 19] , is the recorded Ki below the cut-off of 5 nM?
Ans: Not fulfilled

Q: For COc1cc2c(NS(=O)(=O)c3c(OC)cc(CN4CCCC4(C)C)cc3OC)noc2cc1Nc1cc(C2CC2)n[nH]1 [Example 206] , is the recorded Ki below the cut-off of 5 nM?
Ans: Fulfilled

Q: For COc1cc2c(NS(=O)(=O)c3c(OC)cccc3OC)noc2cc1Nc1cc(C2CCCC2)n[nH]1 [Example 85] , is the recorded Ki below the cut-off of 5 nM?
Ans: Fulfilled

Q: For COc1cc2c(NS(=O)(=O)c3c(OC)cccc3OC)noc2cc1Nc1cc(Cc2ccccc2)n[nH]1 [Example 109] , is the recorded Ki below the cut-off of 5 nM?
Ans: Fulfilled

Q: For COc1cc2c(NS(=O)(=O)c3c(OC)cc(CN4CCC[C@H](C)C4)cc3OC)noc2cc1Nc1cc(C2CC2)n[nH]1 [Example 195] , is the recorded Ki below the cut-off of 5 nM?
Ans: Fulfilled

Q: For CCc1cc(Nc2cc3onc(NS(=O)(=O)c4ccc(Oc5ccccc5)cc4)c3cc2OC)n[nH]1 [Example 132] , is the recorded Ki below the cut-off of 5 nM?
Ans: Not fulfilled

Q: For COc1cc2c(NS(=O)(=O)c3c(OC)cc(C4CCN(C)C4)cc3OC)noc2cc1Nc1cc(C2CC2)n[nH]1 (single isomer, unassigned) [Example 147] , is the recorded Ki below the cut-off of 5 nM?
Ans: Fulfilled
